// data source = patent US20210363269A1

Each entry below carries its reported pKd.
- tested-system: T1, NOD mouse SIRP-α (mouse (NOD strain))
- T1 chain: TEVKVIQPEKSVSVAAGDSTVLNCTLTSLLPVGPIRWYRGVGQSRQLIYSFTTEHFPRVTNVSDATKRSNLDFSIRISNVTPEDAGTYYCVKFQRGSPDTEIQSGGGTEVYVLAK
- experiment-notes: SPR, antibody on GLC chip
Reminder that pKd is minus the log10 of a molar concentration.

Recorded results for 4 binders are shown here.
antibody 136 variant, light chain Mut_Q38E / heavy chain Mut (antibody, V domains shown) VH: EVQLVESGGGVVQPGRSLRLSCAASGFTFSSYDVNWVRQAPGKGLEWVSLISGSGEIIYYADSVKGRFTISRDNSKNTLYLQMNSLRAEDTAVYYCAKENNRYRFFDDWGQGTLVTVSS VL: EIVLTQSPGTLSLSPGERATLSCRASQSVYTYLAWYQEKPGQAPRLLIYGASSRATGIPDRFSGSGSGTEFTLTISSLQSEDFAVYYCQQYYDRPPLTFGGGTKVEIK : 8.22
antibody 136 variant, light chain Mut_S22T / heavy chain Mut (antibody, V domains shown) VH: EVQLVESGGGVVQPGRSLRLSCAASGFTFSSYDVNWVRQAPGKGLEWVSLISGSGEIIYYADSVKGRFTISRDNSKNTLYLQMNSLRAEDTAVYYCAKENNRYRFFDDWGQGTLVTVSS VL: EIVLTQSPGTLSLSPGERATLTCRASQSVYTYLAWYQQKPGQAPRLLIYGASSRATGIPDRFSGSGSGTEFTLTISSLQSEDFAVYYCQQYYDRPPLTFGGGTKVEIK : 8.61
antibody 136 variant, light chain wt / heavy chain Mut (antibody, V domains shown) VH: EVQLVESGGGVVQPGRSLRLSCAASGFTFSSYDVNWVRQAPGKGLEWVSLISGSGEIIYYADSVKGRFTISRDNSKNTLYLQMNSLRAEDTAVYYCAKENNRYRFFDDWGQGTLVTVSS VL: ETVLTQSPGTLTLSPGERATLTCRASQSVYTYLAWYQEKPGQAPRLLIYGASSRATGIPDRFSGSGSGTEFTLTISSLQSEDFAVYYCQQYYDRPPLTFGGGTKVEIK : 9.17
antibody 136 variant, light chain Mut_S12T / heavy chain Mut (antibody, V domains shown) VH: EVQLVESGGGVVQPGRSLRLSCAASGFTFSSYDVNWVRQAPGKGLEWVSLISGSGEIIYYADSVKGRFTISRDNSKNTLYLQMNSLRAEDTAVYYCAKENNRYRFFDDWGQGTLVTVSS VL: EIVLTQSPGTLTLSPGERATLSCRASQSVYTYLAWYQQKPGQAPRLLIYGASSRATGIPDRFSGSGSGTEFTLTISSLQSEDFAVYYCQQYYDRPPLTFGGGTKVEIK : 8.55

Okay, now this binder:
Input antibody 136 variant, light chain Mut_I2T / heavy chain Mut (antibody, V domains shown) VH: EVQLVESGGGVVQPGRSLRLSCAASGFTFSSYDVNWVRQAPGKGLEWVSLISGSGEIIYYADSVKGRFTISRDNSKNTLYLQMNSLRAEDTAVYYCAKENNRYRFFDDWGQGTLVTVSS VL: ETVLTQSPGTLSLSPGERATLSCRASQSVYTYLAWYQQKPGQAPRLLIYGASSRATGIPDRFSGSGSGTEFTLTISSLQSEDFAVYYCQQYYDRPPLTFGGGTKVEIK . Output pKd: 9.17
